biological target: human TOR (Homo sapiens, UniProt P42345); construct: FLAG; assay: mTOR enzyme assay (DELFIA, His6-S6K substrate); type: biochemical; conditions: read-out: mTOR Kinase Avg. IC50
metric.name: IC50 (µM)

A. O=C1C(=Cc2c[nH]c3cc(F)ccc23)Oc2cc(O)cc(O)c21
B. Cn1cc(/C=C2\Oc3cc(O)cc(O)c3C2=O)c2c(-c3ccc(C(N)=O)cc3)cccc21
C. Cc1c(C=C2Oc3cc(O)cc(O)c3C2=O)c2ccccc2n1CCCC#N
Challenge: Please arrange the 3 molecules above from largest to smallest IC50 value. Response field: labels, in requested order.
Response given: A, C, B

P. COc1ccc2[nH]c(-c3c(C)nn(C)c3C)c(/C=C3\Oc4ccc(NC(=O)Nc5ccc(C(=O)N6CCN(C)CC6)cc5)cc4C3=O)c2c1
Q. O=C1C(=Cc2c(-c3ccccc3)n(CCN3CCCC3)c3ccccc23)Oc2cc(O)cc(O)c21
Challenge: Hi, I'm comparing two records. Which one has the lower IC50, P or Q ? Kindly give the label for the entry you pick.
Response given: P

----------
molecular target: PI3K-gamma (Homo sapiens, UniProt P48736); test: PI3K-gamma fluorescence polarization assay; format: biochemical; settings: PI3Kγ Avg. IC50
Sequence (P48736 whole entry, species assumed): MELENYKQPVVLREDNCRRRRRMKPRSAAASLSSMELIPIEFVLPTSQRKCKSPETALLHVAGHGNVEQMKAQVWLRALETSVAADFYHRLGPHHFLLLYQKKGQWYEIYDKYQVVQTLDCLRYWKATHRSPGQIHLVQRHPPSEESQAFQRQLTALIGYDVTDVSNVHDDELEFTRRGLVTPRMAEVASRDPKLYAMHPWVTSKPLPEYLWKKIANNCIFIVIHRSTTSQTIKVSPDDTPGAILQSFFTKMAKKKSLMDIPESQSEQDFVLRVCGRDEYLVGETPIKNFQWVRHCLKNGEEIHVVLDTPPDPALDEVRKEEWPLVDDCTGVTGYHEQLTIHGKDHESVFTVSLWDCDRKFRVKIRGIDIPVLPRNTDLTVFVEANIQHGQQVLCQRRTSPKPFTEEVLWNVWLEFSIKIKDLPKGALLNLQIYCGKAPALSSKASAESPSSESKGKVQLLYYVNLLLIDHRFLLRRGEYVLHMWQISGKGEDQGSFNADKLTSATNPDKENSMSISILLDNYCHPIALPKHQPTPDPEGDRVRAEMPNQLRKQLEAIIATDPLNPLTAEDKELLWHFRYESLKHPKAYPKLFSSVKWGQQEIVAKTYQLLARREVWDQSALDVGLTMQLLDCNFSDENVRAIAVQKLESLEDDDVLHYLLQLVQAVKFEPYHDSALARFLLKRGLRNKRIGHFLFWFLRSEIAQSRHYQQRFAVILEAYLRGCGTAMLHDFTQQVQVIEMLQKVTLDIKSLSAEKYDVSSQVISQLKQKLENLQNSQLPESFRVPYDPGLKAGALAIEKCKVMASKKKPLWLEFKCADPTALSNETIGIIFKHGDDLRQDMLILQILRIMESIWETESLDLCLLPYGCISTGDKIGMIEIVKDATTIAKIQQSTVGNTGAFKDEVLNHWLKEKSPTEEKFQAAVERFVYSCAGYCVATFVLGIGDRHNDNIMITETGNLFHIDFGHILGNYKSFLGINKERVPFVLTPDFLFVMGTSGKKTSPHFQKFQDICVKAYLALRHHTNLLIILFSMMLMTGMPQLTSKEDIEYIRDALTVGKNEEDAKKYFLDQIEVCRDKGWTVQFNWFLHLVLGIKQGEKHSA
pIC50: −log10 of the molar value.
metric.name: pIC50

{"structure": "COc1ccc2[nH]c(-c3cncnc3)c(/C=C3\\Oc4cc(O)cc(O)c4C3=O)c2c1", "assay.result": 7.26}

1. COc1ccc2[nH]c(C(=O)N3CCN(C)CC3)c(/C=C3\Oc4cc(O)cc(O)c4C3=O)c2c1
2. COc1ccc2c(c1)c(/C=C1\Oc3cc(O)cc(C)c3C1=O)cn2C
Challenge: Hi, I'm comparing two records. Which one has the lower pIC50, 1 or 2 ? Kindly give the label for the entry you pick.
Response given: 2
(2: 5.81, 1: 7.40)

----------
target: human TOR (Homo sapiens); construct: FLAG; experiment: mTOR enzyme assay (DELFIA, His6-S6K substrate); type: biochemical; settings: read-out: mTOR Kinase Avg. IC50
metric.name: IC50 (µM)

Consider the reported IC50 for these compounds:
{"structure": "COc1ccc2c(c1)c(/C=C1\\Oc3cc(O)cc(O)c3C1=O)c(C1CC1)n2CCN1CCN(C)CC1", "subject.of.test": "human TOR (Homo sapiens)", "metric.name": "IC50", "assay.result": 0.3}
{"structure": "COc1ccc2c(c1)c(/C=C1\\Oc3cc(O)cc(O)c3C1=O)c(C1CC1)n2CC(=O)N(C)C", "subject.of.test": "human TOR (Homo sapiens)", "metric.name": "IC50", "assay.result": 0.0123}
{"structure": "COc1ccc2c(c1)c(C=C1Oc3cc(O)cc(O)c3C1=O)cn2C", "subject.of.test": "human TOR (Homo sapiens)", "metric.name": "IC50", "assay.result": 0.0653}
{"structure": "COC(=O)c1cccc2[nH]cc(C=C3Oc4cc(O)cc(O)c4C3=O)c12", "subject.of.test": "human TOR (Homo sapiens)", "metric.name": "IC50", "assay.result": 2.1}
{"structure": "COc1ccc2c(c1)c(/C=C1\\Oc3cc(O)cc(O)c3C1=O)c(-c1c(C)noc1C)n2CCN1CCN(C)CC1", "subject.of.test": "human TOR (Homo sapiens)", "metric.name": "IC50", "assay.result": 0.00525}
{"structure": "COc1ccc(-c2cccc3[nH]cc(/C=C4\\Oc5cc(O)cc(O)c5C4=O)c23)cc1", "subject.of.test": "human TOR (Homo sapiens)", "metric.name": "IC50", "assay.result": 0.73}
{"structure": "COc1ccc(-c2cccc3c2c(/C=C2\\Oc4cc(O)cc(O)c4C2=O)cn3C)cc1", "subject.of.test": "human TOR (Homo sapiens)", "metric.name": "IC50", "assay.result": 0.128}
{"structure": "CCn1c(C)c(/C=C2\\Oc3ccc(NC(=O)Nc4ccc(CCCCN(C)C)cc4)cc3C2=O)c2cc(OC)ccc21", "subject.of.test": "human TOR (Homo sapiens)", "metric.name": "IC50", "assay.result": 0.71}
{"structure": "Cn1cc(/C=C2\\Oc3cc(O)cc(O)c3C2=O)c2c(-c3ccoc3)cccc21", "subject.of.test": "human TOR (Homo sapiens)", "metric.name": "IC50", "assay.result": 0.107}
{"structure": "COc1ccc2c(c1)c(/C=C1\\Oc3cc(O)cc(O)c3C1=O)c(C1CCC1)n2CCN1CCN(C)CC1", "subject.of.test": "human TOR (Homo sapiens)", "metric.name": "IC50", "assay.result": 0.00375}

I. O=C1C(=Cc2c[nH]c3cc(Br)ccc23)Oc2cc(O)cc(O)c21
II. CC(=O)Nc1ccc(-c2cccc3c2c(/C=C2\Oc4cc(O)cc(O)c4C2=O)cn3C)cc1
Challenge: Hi, I'm comparing two records. Which one has the lower IC50, I or II ? Kindly give the label for the entry you pick.
Response given: II
(II: 0.0123 µM, I: 4.45 µM)

I. COCCn1cc(C=C2Oc3cc(O)cc(O)c3C2=O)c2c(C#N)cccc21
II. Cn1cc(/C=C2\Oc3cc(O)cc(O)c3C2=O)c2c(-c3ccc(C(=O)N4CCCC4)cc3)cccc21
III. O=C1C(=Cc2c(Br)[nH]c3ccccc23)Oc2cc(O)cc(O)c21
IV. CNC(=S)Nc1ccc2c(c1)C(=O)/C(=C/c1c(C)n(CCN3CCN(C)CC3)c3ccc(OC)cc13)O2
Challenge: Sequence the entries by IC50, beginning with the highest number. Response field: labels, in requested order.
Response given: IV, I, III, II

From: patent US20090311217A1
